- Test system: CAKI-1
- assay procedure: NCI tumour cell line growth inhibition, 48 h
The source made the active and inactive calls. No stated cut-off is given here; in the data, active = GI50 up to about 1.1 µM and inactive = higher.
Lab note: assign the record to one of active, inactive

*Q* Could you check what this test reported for OCC(O)C(O)C(C=NNc1ncnc2ccc(Br)cc12)=NNc1ncnc2ccc(Br)cc12 (configuration not stated) ?
*A* inactive

*Q* Could you check what this test reported for COc1cc(-c2c3c(cc4c2OCO4)[C@@H](Nc2ccc4c(c2)Cc2cc(N[C@@H]5c6cc7c(cc6C(c6cc(OC)c(O)c(OC)c6)[C@H]6C(=O)OC[C@H]56)OCO7)ccc2-4)[C@H]2COC(=O)[C@@H]2C3)cc(OC)c1O (some centres not stated) ?
*A* inactive

*Q* Could you check what this test reported for "c1ccc(/N=c2/[nH]c3ccccc3s/c2=N/c2ccccc2)cc1" ?
*A* inactive

*Q* Could you check what this test reported for c1ccc(C2CC(c3ccc4ccccc4c3)=Nc3ccccc3S2)cc1 (configuration not stated) ?
*A* inactive

*Q* Could you check what this test reported for CC1C2(C)OCC(C#N)(C(=N)O2)C1(C#N)C#N (configuration not stated) ?
*A* inactive

*Q* Could you check what this test reported for "CCOC(=O)CCN1C(=O)C(=O)N(c2ccc(OC)cc2)C1=S" ?
*A* inactive

*Q* Could you check what this test reported for "O=C(O)c1cccc(OCCOc2cccc(C(=O)O)c2[N+](=O)[O-])c1[N+](=O)[O-]" ?
*A* inactive

*Q* Could you check what this test reported for "CN1CCN(c2cc3nsnc3c3nsnc23)CC1" ?
*A* inactive

*Q* Could you check what this test reported for "C=CCc1cccc2cc(C(=O)NCc3ccccc3)c(=N)oc12" ?
*A* inactive

*Q* Could you check what this test reported for C[C@@H](Oc1ccc(Oc2cnc3ccc(Cl)cc3n2)cc1)C(=O)O [R(+)XK469] ?
*A* inactive

*Q* Could you check what this test reported for Cc1cc(O)c(C=O)c(C)c1CCC1(C)C=Cc2cc(O)ccc2O1 (configuration not stated) ?
*A* inactive

*Q* Could you check what this test reported for "CCOC(=O)C1=C(C)N(Cc2ccccc2)C(C)=C(C(=O)OCC)C1c1ccccc1O" ?
*A* inactive

*Q* Could you check what this test reported for "CN(C)C(=S)N/N=C\C=N/NC(=S)N(C)C" ?
*A* active

*Q* Could you check what this test reported for "O=c1oc2c(Cl)cc(Cl)cc2cc1C1=CSC2=NCCN12" ?
*A* inactive

*Q* Could you check what this test reported for "COc1ccc2c(c1)/C(=C(\C(Cl)=C(Cl)Cl)[N+](=O)[O-])N2" ?
*A* inactive

*Q* Could you check what this test reported for "COc1cc(O)c2c(=O)c(O)c(-c3ccc(O)c(O)c3)oc2c1" ?
*A* active

*Q* Could you check what this test reported for "CCOC(=O)c1nc2ccc(C(F)(F)F)cc2nc1Nc1ccc(F)cc1" ?
*A* inactive

*Q* Could you check what this test reported for "CCN(CC)CCNc1ccc2ncn3c4ccc(OC)cc4c(=O)c1c23" ?
*A* inactive

*Q* Could you check what this test reported for C[C@@H]1C(O)CC[C@H](C)C12CC=CC2=O (some centres not stated) ?
*A* inactive

*Q* Could you check what this test reported for "C#CC[C@]12CC(=O)CC[C@H]1CC1(C2)OCCO1" ?
*A* inactive

*Q* Could you check what this test reported for "Sc1nnc(COc2ccc(Cl)cc2Cl)[nH]1" ?
*A* inactive

*Q* Could you check what this test reported for CC[C@H](C)[C@H]1NC(=O)[C@@H](NC(=O)[C@@H](CC(C)C)N(C)C(=O)C2CCCN2C(=O)[C@H](C)O)[C@@H](C)OC(=O)[C@H](Cc2ccccc2)N(C)C(=O)[C@@H]2CCCN2C(=O)[C@H](CC(C)C)NC(=O)[C@@H](C)C(=O)[C@H](C(C)C)OC(=O)C[C@@H]1O (some centres not stated) ?
*A* active

*Q* Could you check what this test reported for COc1cc(C2C(Cl)C(=O)N2n2cnc3ccccc3c2=O)cc(OC)c1OC (configuration not stated) ?
*A* inactive

*Q* Could you check what this test reported for "Cc1cc(C)c2c(c1)CSCc1cc(C)cc(C)c1-2" ?
*A* inactive

*Q* Could you check what this test reported for "Cc1ccc(NC(=O)/C(Cc2nc3ccc([N+](=O)[O-])cc3nc2O)=N\NC(=O)C[n+]2ccccc2)c(C)c1" ?
*A* inactive

*Q* Could you check what this test reported for "Cc1ccc(S(=O)(=O)N/N=c2\c(C)c(C3=NS(=O)(=O)c4cc(S(N)(=O)=O)c(Cl)cc4N3)oc3c(Cl)cc(Cl)cc23)cc1" ?
*A* inactive

*Q* Could you check what this test reported for "O=C(O)c1ccc(Nc2nc3cc(C(F)(F)F)ccc3n3cccc23)cc1" ?
*A* inactive

meta.source: ChEMBL document CHEMBL1201862
